Target: T1, K678A (Drosophila melanogaster, UniProt Q9W1K4 512-819, K678A)
T1 sequence: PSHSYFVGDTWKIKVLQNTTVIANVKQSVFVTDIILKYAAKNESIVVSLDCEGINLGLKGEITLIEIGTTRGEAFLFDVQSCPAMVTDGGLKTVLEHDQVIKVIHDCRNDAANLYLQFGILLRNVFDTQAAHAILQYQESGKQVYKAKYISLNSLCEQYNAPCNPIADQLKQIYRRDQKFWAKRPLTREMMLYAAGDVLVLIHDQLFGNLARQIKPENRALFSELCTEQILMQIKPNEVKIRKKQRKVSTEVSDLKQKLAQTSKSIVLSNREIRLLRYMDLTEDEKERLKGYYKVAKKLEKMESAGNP
Experiment: fluorescence anisotropy; FA: 20 mM HEPES-NaOH pH 7.5, 100 mM NaCl, 10% glycerol, 20 C, 10 nM FAM-RNA; competition: 150 nM Egl512-819 + 10 nM FAM-K10 TLS, same buffer
Settings: protein: recombinant; tags: N-terminal GST; label: 5'-6-FAM; hairpin with two bulges
measurement-type: Kd (µM)
Give bare numbers, in µM.

What Kd value was documented for this binder, CUUGAUUGUAUUUUUAAAUUAAUUCUUAAAAACUACAAAUUAAG (structured_RNA) [K10 TLS (FAM)] ?
0.295
